Data origin: PubChem BioAssay (NCI)

tested on: K-562 leukemia; test: NCI tumour cell line growth inhibition, 48 h
quantity: TGI (µM)
Answers are plain numbers, in µM.

molecule=O=C1c2c(c3c4cc(O)ccc4oc3c3[nH]c4ccccc4c23)C(=O)N1O measurement_target="K-562 leukemia" endpoint_value=13.9

# compound NC(=S)n1c(=O)n(-c2cccc(C(F)(F)F)c2)c(=O)c2cc(-c3ccc(F)cc3F)ccc21 ; its TGI = 14.1

* * *

For each entry below, report its GI50 value.
test system: HS 578T breast; test: NCI tumour cell line growth inhibition, 48 h

Worked set:
compound=NC(=S)n1c(=O)n(-c2cccc(C(F)(F)F)c2)c(=O)c2cc(-c3ccc(F)cc3F)ccc21 endpoint_value="1.11 µM"
compound=Cn1ccnc1C(=O)/C=C/c1ccc(CNC(=O)c2ccc(Cl)cc2)cc1 endpoint_value="4.3 µM"
compound="CCN1C(=O)N(CC)C2SC(N/N=C/c3ccccc3)=NC21 (stereo not given)" endpoint_value="0.312 µM"
compound=CC1=C(CN(O)C(N)=O)C2=C(C)C3(CC3)[C@](C)(O)C(=O)C2=C1 endpoint_value="2.63 µM"

Lab note: next compound to report on.
# compound C=C(C)C(=O)O[C@H]1C[C@@]2(C)OC(=CC2=O)/C(CO)=C\[C@H]2OC(=O)C(=C)[C@H]12 ; its GI50 = 0.294 µM
